The reported numbers originate from ChEMBL document CHEMBL1152579.

Target: UniProtKB P08170
Sequence (P08170 whole entry): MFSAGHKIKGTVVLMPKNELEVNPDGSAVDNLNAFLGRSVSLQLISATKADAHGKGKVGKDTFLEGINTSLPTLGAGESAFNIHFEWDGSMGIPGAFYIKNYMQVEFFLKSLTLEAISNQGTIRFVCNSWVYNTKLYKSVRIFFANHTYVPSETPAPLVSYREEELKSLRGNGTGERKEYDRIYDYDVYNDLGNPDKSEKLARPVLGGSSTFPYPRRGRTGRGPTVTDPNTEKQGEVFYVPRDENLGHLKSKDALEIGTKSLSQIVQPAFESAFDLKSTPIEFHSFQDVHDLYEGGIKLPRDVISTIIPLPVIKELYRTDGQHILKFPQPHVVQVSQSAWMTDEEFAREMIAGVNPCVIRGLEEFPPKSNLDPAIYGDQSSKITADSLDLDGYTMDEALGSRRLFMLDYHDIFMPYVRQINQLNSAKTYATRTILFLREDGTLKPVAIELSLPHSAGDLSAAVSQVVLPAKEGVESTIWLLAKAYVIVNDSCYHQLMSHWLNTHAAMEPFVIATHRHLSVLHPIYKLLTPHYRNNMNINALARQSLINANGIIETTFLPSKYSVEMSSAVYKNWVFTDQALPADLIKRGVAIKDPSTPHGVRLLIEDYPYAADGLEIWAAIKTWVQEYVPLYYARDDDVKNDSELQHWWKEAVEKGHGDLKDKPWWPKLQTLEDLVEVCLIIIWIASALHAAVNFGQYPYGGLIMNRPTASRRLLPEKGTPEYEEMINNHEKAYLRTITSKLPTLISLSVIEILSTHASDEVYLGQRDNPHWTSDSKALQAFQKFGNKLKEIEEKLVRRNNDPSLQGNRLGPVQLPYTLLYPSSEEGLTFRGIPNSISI
Assay: Binding affinity to allosteric site of soybean LO1
recorded-endpoint: Ki (µM)

>  <structure>
CCCCCC/C=C\CCCCCCCCOS(=O)(=O)O

>  <unit-abbrev>
µM

>  <val>
140

$$$$
